Measured values drawn from the supplement of paper PMC3334620 for this set.

Target desc: Ecm22 (UniProt Q05958)
Sequence: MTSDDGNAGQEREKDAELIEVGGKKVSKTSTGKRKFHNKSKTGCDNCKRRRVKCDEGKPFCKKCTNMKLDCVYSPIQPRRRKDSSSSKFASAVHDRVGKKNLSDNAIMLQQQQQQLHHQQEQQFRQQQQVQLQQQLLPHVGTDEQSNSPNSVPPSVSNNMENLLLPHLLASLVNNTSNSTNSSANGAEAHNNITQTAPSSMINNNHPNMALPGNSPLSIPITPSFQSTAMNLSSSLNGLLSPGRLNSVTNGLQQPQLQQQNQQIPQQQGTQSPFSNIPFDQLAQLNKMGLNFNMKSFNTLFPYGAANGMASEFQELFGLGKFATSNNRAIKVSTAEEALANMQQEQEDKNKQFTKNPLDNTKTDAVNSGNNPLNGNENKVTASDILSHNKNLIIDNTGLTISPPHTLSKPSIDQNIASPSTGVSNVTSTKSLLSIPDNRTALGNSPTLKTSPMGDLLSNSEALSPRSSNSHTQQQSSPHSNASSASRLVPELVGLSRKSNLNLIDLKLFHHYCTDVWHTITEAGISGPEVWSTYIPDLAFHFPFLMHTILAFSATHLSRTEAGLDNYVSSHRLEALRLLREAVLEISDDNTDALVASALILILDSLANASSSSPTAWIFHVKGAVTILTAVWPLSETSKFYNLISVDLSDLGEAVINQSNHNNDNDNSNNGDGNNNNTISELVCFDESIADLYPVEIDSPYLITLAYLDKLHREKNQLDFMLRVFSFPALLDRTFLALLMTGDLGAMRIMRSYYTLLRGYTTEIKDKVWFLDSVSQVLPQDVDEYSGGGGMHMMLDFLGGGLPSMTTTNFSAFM
Protocol text: PBM E-score (8-mer binding enrichment) (E-score (-0.5 to 0.5)); higher = stronger / more preferred TF binding
Condition details: protein concentration: 200 nM; construct: GST-full length
Over roughly 33,000 sequences, “E-score (-0.5 to 0.5)” has its median near -0.041; the highest 2% begin near 0.37. The sample as a whole holds a higher share of the highest values than the screen did.
Reported endpoint: PBM E-score
# answer = number (no unit)

Seq text | Readout number
ACGAGATC | 0.433
CGCACGAA | 0.175

Give a short answer stating reported PBM E-score for `ACGAGATG` . 0.365

Give a short answer stating reported PBM E-score for `ACGAGACA` . 0.315

Give a short answer stating reported PBM E-score for `ACGAGAGC` . 0.399

Give a short answer stating reported PBM E-score for `ACGAGACT` . 0.348

Give a short answer stating reported PBM E-score for `GCCTCGCA` . 0.205

###

Target desc: Ecm22 (UniProt Q05958)
Sequence: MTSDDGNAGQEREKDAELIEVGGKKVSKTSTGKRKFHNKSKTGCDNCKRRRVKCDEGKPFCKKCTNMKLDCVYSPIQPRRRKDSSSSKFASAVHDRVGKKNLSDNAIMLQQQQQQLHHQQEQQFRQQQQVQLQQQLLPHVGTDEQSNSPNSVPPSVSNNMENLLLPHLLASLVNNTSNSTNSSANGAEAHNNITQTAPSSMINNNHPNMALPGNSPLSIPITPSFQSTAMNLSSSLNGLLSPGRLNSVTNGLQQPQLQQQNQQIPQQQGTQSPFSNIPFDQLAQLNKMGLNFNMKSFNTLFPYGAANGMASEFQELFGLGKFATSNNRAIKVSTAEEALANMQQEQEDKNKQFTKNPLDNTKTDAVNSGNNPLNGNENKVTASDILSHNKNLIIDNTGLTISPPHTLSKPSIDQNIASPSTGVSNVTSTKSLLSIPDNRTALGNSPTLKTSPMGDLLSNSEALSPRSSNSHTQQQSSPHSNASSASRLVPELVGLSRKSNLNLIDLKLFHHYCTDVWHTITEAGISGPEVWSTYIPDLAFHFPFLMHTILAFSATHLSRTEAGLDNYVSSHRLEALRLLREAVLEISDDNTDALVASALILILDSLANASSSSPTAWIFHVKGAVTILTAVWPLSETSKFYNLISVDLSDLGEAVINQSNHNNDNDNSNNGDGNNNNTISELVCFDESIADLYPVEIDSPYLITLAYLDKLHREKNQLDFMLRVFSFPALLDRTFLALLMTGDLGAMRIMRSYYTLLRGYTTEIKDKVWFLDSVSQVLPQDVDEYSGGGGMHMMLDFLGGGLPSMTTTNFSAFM
Protocol text: PBM E-score (8-mer binding enrichment) (E-score (-0.5 to 0.5)); higher = stronger / more preferred TF binding
Condition details: protein concentration: 200 nM; construct: GST-full length
The full ranking holds about 33,000 sequences; the median of “E-score (-0.5 to 0.5)” is about -0.041, and the highest 2% start at about 0.37. The list comes from a sample in which the highest values are over-represented; it also holds close analogues and randomly drawn sequences.
Reported values of PBM E-score for individual entries
# answer = number (no unit)

Seq text | PBM E-score
ACGAGGAC | 0.42
AACGACCG | 0.407
AGGAGGAT | -0.157
ATACGAAT | 0.45
AAACGAGC | 0.482
GTGGGTCA | -0.308
GGTCTAAC | -0.0964
CTTTGGCA | -0.144
GTTTAAAC | 0.285
AGACGAAT | 0.0921

Give a short answer stating reported PBM E-score for `AAGACCTC` . -0.2

Give a short answer stating reported PBM E-score for `AACGACCA` . 0.424

Give a short answer stating reported PBM E-score for `ATAGTACA` . 0.151

Give a short answer stating reported PBM E-score for `CCCCTAGC` . -0.254

###

Target desc: Ecm22 (UniProt Q05958)
Sequence: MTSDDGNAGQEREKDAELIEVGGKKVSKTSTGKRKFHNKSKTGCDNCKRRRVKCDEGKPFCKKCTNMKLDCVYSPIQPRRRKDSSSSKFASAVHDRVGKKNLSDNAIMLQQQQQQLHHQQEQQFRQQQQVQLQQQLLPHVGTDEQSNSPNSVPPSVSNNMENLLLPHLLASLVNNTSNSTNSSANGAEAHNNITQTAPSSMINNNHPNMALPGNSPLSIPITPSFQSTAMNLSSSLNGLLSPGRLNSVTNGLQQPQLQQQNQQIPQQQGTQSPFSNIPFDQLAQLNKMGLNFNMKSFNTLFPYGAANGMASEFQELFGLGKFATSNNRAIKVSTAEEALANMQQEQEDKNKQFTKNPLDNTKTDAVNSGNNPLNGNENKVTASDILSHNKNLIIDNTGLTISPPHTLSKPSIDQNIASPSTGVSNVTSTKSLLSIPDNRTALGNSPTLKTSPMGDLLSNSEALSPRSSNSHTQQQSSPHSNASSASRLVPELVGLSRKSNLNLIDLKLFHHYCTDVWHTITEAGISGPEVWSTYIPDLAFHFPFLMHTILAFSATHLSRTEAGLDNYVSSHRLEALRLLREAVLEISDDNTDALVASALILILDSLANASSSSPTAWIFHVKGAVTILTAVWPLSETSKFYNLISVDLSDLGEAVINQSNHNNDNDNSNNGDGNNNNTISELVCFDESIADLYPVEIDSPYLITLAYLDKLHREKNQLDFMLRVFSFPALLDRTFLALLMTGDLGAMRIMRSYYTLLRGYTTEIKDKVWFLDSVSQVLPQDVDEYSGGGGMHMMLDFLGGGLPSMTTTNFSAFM
Protocol text: PBM E-score (8-mer binding enrichment) (E-score (-0.5 to 0.5)); higher = stronger / more preferred TF binding
Condition details: protein concentration: 200 nM; construct: GST-full length
Over roughly 33,000 sequences, “E-score (-0.5 to 0.5)” has its median near -0.041; the highest 2% begin near 0.37. For the sample, the highest values were picked, then their nearest neighbours and some sequences at random.
Assign label 1 whenever PBM E-score does not fall below 0.04; assign label 0 whenever it does.

These recorded examples may help you get a feel for the data.
Seq text | Classification
CAGGGGAA | label 0
CGGACTGC | label 0
GTGACAGA | label 0

Is PBM E-score for `GCGAGGCC` at or above 0.04? label 1

Is PBM E-score for `ACTTTGGG` at or above 0.04? label 0

Is PBM E-score for `TCCTGAAA` at or above 0.04? label 0

Is PBM E-score for `CCCGTAGC` at or above 0.04? label 1

###

Target desc: Ecm22 (UniProt Q05958)
Sequence: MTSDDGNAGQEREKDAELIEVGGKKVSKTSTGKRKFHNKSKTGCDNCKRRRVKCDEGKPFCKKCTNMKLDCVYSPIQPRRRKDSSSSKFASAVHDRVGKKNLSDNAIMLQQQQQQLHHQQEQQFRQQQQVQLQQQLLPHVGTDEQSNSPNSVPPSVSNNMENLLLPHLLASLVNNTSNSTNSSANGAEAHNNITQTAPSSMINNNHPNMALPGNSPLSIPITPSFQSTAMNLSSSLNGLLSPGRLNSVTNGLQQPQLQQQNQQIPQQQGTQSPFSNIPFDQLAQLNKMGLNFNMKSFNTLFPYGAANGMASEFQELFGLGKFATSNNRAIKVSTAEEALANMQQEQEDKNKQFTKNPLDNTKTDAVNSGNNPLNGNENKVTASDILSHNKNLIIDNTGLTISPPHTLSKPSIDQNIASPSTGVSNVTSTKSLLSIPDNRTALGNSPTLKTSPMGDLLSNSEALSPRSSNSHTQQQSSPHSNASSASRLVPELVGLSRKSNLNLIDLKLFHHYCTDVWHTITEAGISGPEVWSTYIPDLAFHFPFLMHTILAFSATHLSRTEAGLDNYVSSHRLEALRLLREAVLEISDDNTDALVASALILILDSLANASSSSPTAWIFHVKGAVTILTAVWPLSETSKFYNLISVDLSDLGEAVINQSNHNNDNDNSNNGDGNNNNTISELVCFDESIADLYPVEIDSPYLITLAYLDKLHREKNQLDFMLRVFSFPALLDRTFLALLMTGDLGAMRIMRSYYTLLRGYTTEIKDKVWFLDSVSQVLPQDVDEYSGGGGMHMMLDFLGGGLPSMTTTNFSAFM
Protocol text: PBM E-score (8-mer binding enrichment) (E-score (-0.5 to 0.5)); higher = stronger / more preferred TF binding
Condition details: protein concentration: 200 nM; construct: GST-full length
Over roughly 33,000 sequences, “E-score (-0.5 to 0.5)” has its median near -0.041; the highest 2% begin near 0.37. The list comes from a sample in which the highest values are over-represented; it also holds close analogues and randomly drawn sequences.
Reported values of PBM E-score for individual entries
# answer = number (no unit)

Seq text | Readout number
GCTTACTA | -0.087
ACTAAGGA | 0.1
ACTTACGG | 0.207

Give a short answer stating reported PBM E-score for `AAGAGGTG` . -0.0239

Give a short answer stating reported PBM E-score for `CCTTACGC` . 0.205
